# System under test: GAL4 DBD (1-147)-CfEcR(DEF)/VP16AD-βRXREF-LmUSPEF (Choristoneura fumiferana)
# Method: 27-63 assay: luciferase reporter gene expression in stable CHO cell clone 27-63
# Experimental setup: read-out: 27-63 LC50; average; dose response, three-parameter logistic model
Measured CC50 values are reported for all entries that follow.
Use µM as the unit, but write only the number.

// below: answered molecules
{"columns": ["Molecule", "CC50, µM"],
 "data": [
  ["COc1ccc(C(=O)C2(NC(=O)c3cccc(OC)c3C)CCCCC2)c(OC)n1 [Example 64]", 3.12],
  ["Cc1cc(C)cc(C(=O)C2(NC(=O)c3ccc4c(c3)COCO4)CCCCC2)c1 [Example 83]", 7.06],
  ["CCc1c(C(=O)NC2(C(=O)c3cc(C)cc(C)c3)CCCC2)ccc2c1OCCO2 [Example 84]", 1.02],
  ["COc1cccc(C(=O)NC(C)(C(=O)c2cc(C)cc(C)c2)C(C)C)c1C (stereo not drawn) [Example 20]", 2.56]
]}

# next molecule below
Form: molecule = COc1cccc(C(=O)NC(C)(CC(C)C)C(=O)c2cc(C)cc(C)c2)c1C (stereo not drawn) [Example 55] ; CC50 = 3.85

###

Measured CC50 values are reported for all entries that follow.
# System under test: GAL4 DBD (1-147)-CfEcR(DEF)/VP16AD-βRXREF-LmUSPEF (Choristoneura fumiferana, UniProt O77240)
# Sequence (O77240 191-513): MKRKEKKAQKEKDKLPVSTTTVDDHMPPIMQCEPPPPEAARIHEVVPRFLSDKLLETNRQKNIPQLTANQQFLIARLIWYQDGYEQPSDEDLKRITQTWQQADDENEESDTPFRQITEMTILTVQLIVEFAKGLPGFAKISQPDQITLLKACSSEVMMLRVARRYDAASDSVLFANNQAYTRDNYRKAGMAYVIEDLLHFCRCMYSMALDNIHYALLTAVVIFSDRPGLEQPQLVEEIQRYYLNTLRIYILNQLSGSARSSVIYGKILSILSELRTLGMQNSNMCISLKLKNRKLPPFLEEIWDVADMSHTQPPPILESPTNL
# Sequence (P28702 296-455 partner limits assumed): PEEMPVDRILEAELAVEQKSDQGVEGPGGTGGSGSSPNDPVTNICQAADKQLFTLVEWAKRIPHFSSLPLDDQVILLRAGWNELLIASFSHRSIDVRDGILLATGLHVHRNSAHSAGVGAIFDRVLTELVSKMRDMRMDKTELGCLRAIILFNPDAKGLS
# Method: 27-63 assay: luciferase reporter gene expression in stable CHO cell clone 27-63
# Experimental setup: read-out: 27-63 LC50; average; dose response, three-parameter logistic model
# Procedure: GAL4 DBD (1-147)-CfEcR(DEF)/VP16AD-βRXREF-LmUSPEF: The wild-type D, E, and F domains from spruce budworm Choristoneura fumiferana EcR (“CfEcR-DEF”; SEQ ID NO: 1) were fused to a GAL4 DNA binding domain (“Gal4 DBD1-147”; nucleotides 31 to 471 of SEQ ID NO: 2) and placed under the control of a phosphoglycerate kinase promoter (“PGK”; SEQ ID NO: 3). […] Luciferase reporter gene expression was measured 48 h after cell treatment using Bright-Glo™ Luciferase Assay System from Promega (E2650). […]
Use µM as the unit, but write only the number.

// below: answered compounds
{"columns": ["Mol smiles", "CC50 / µM"],
 "data": [
  ["COc1cccc(C(=O)NC2(C(=O)c3ccc(C)cc3)CCCCC2)c1C", 6.18],
  ["COc1cccc(C(=O)NC(C)(C)C(=O)c2cc(C)cc(C)c2)c1C", 42],
  ["COc1cccc(C(=O)NC2(C(=O)c3cccc(C)c3)CCSCC2)c1C", 11],
  ["CCC(CC)(NC(=O)c1cccc(OC)c1C)C(=O)c1cc(C)cc(C)c1", 6.23]
]}

# next compound below
Form: compound = COc1cccc(C(=O)C2(NC(=O)c3cccc(OC)c3C)CCCCC2)c1 ; CC50 = 4.28
